Target: T1, human Kell glycoprotein, K form (KEL1) (human, UniProt P23276 1-732)
T1 construct: whole, on cells; On human K/K or K+k+ RBCs and on RBCs of K transgenic mice; also called K antigen; K variant
T1 sequence (looked up): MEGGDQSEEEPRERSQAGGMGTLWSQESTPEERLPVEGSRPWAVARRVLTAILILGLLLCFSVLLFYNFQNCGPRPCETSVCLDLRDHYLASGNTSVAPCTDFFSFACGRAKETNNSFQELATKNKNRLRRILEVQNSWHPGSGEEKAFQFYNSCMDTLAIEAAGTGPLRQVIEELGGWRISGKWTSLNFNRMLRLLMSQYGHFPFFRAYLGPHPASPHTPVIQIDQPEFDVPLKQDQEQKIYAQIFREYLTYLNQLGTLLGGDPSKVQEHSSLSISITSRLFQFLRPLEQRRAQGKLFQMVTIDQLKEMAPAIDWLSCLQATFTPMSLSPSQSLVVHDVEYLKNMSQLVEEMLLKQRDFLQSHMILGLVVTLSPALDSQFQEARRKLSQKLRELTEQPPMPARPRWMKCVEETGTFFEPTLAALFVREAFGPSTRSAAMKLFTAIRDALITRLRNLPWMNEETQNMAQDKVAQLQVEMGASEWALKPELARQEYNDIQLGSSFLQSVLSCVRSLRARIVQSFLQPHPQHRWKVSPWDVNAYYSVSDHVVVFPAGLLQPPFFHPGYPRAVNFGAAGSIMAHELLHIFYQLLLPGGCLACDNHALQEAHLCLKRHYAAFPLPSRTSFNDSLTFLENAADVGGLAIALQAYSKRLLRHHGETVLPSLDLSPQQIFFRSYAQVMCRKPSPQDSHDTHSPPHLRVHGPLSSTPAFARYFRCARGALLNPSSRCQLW
Test: flow cytometry on human K+k+ RBCs, detected with polyclonal anti-IgG
Method: Flow cytometry consisted of incubating test RBCs with PUMA 1 variants, followed by the anti-IgG being evaluated, followed by a detection reagent. Test RBCs included RBCs from K mice, wild-type mice, and reagent RBCs from humans with the phenotype of (K+k+) or (K−k+). […] All flow cytometry was performed on an Accuri 4 color cytometer (BD biosciences, San Jose Calif.) and all data was analyzed with Flo-Jo version 10. […]
assay.metric: binding result

PUMA 1 human IgG3-16 isoallotype (antibody, Isoallotype named in CLM-00007; not shown: human IgG3 heavy chain constant region, isoallotype IGHG3*16; human kappa light chain constant region (vector pFUSE2-CLIg-hk)) heavy: EVQLQQSGPELVKPGASVKMSCKASGYTFTDYYMKWVKQSHGKSLEWIGDLNPNNGDTFYNQKFKGKATLTVDKSSSTAYIQLNSLTSEDSAVYYCAREAGSSFGSSCNYWGQGTTLTVS light: SVVMTQTPKFLLVSAGDRVTITCKASQTVSKDVAWYQQQPGQSPKLLIYYASNRYTGVPDRFTGSGYGTDFTFTISTVQAEDLAVYFCQQDYSSPYTFGGGTKLEIK :: binds
PUMA 1 human IgG1-07 isoallotype (antibody, Isoallotype named in CLM-00007; not shown: human IgG1 heavy chain constant region, isoallotype IGHG1*07; human kappa light chain constant region (vector pFUSE2-CLIg-hk)) heavy: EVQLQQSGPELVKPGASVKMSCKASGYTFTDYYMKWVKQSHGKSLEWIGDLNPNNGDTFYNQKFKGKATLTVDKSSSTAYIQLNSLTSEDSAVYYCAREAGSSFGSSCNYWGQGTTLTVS light: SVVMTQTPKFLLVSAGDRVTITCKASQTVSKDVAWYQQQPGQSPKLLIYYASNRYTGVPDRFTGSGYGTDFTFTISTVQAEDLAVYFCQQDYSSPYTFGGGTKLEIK :: binds
PUMA 1 human IgG3-19 isoallotype (antibody, Isoallotype named in CLM-00007; not shown: human IgG3 heavy chain constant region, isoallotype IGHG3*19; human kappa light chain constant region (vector pFUSE2-CLIg-hk)) heavy: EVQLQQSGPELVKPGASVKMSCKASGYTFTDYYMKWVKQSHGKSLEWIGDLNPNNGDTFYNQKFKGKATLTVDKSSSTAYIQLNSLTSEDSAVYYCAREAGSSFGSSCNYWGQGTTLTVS light: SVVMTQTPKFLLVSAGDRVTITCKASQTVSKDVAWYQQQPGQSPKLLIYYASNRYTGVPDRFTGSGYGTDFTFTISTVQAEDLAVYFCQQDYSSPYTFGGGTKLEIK :: binds
